Test system: HeLa Kyoto;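 further: HeLa Kyoto cells synchronized by double thymidine or nocodazole block, proteins quantified by TMT10plex mass spectrometry, three independent biological replicates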
testProtocol: melting temperature (median over replicates), in situ; higher = more thermally stable
protocolConditions: cell cycle stage: mitosis
parameter: melting temperature (°C)
Note: unit °C is implicit; provide only the numeric part.

Using the record for MGLLAFLKTQFVLHLLVGFVFVVSGLVINFVQLCTLALWPVSKQLYRRLNCRLAYSLWSQLVMLLEWWSCTECTLFTDQATVERFGKEHAVIILNHNFEIDFLCGWTMCERFGVLGSSKVLAKKELLYVPLIGWTWYFLEIVFCKRKWEEDRDTVVEGLRRLSDYPEYMWFLLYCEGTRFTETKHRVSMEVAAAKGLPVLKYHLLPRTKGFTTAVKCLRGTVAAVYDVTLNFRGNKNPSLLGILYGKKYEADMCVRRFPLEDIPLDEKEAAQWLHKLYQEKDALQEIYNQKGMFPGEQFKPARRPWTLLNFLSWATILLSPLFSFVLGVFASGSPLLILTFLGFVGAASFGVRRLIGVTEIEKGSSYGNQEFKKKE [AGPAT3] , state its measured melting temperature. 52.4

Each recorded value in this set is attributed to the supplement of paper PMC5998384.
